test system: a variety of test species; assay: Pre-emergence herbicidal activity (glasshouse, sprayed one day after sowing, evaluated after 13 days); type: in vivo; settings: ECHCG, application pre-emergence, rate 1000 g/Ha, scale 0-5
Documented Pre-emergence herbicidal damage score, ECHCG across a set of compounds
Respond numerically, and do not add a unit to the figure.

// solved cases for Pre-emergence herbicidal damage score, ECHCG follow
compound	numeric.result
CC1=C(Cl)C(=O)N(c2cc(C(C)(C)C)on2)C1OC(=O)SCC(C)C (stereo not shown)	1
COC1=C(C)CN(c2cc(C(C)(C)C)on2)C1=O	4
CCCC1=C(Br)C(=O)N(c2cc(C(C)(C)C#N)on2)C1O (stereo not shown)	5
CC1=C(Cl)C(=O)N(c2cc(C3CCCCC3)on2)C1O (stereo not shown)	2
CC1=C(Cl)C(=O)N(c2cc(C(C)(C)C)on2)C1OC(=O)C(C)(C)C (stereo not shown)	1
CC(C)(C)c1cc(N2C(=O)C(Cl)=C(NC3CC3)C2O)no1 (stereo not shown)	5

Recorded Pre-emergence herbicidal damage score, ECHCG for CC1=C(Br)C(=O)N(c2cc(C(F)(F)F)on2)C1O (stereo not shown) on a variety of test species was 1

Recorded Pre-emergence herbicidal damage score, ECHCG for CC(C)=CCCc1cc(N2C(=O)C(Cl)=C(C)C2O)no1 (stereo not shown) on a variety of test species was 0

Recorded Pre-emergence herbicidal damage score, ECHCG for CC1=C(Cl)C(=O)N(c2noc(C(C)(C)C)c2F)C1O (stereo not shown) on a variety of test species was 5

Hello, the source for this data is patent US9936701B2, in case you need it.
